Quick reference: Survival of the listed items.
Biological target: NAD(P)H dehydrogenase [quinone] 1 (Mus musculus)
Assay: Induction of quinone reductase 1 activity in mouse Hepa-1c1c7 cells assessed as cell survival at 50 uM by MTT assay relative to control
Type: cell-based
Please respond with the number in % and leave the unit unwritten.

Some solved cases for reference:
COC(=O)[C@@H]1Cc2c([nH]c3ccccc23)CN1S(=O)(=O)c1ccc(Br)cc1 :: 36.4
C=CCOC(=O)N1Cc2[nH]c3ccccc3c2C[C@H]1C(=O)OC :: 83.4
C=CCOC(=O)N1Cc2[nH]c3ccccc3c2C[C@H]1C(=O)O :: 82.9

Using the record for COC(=O)[C@@H]1Cc2c([nH]c3ccccc23)CN1S(=O)(=O)c1ccc(C)cc1 , state its measured Survival. 61

====

Molecular target: Nitric oxide synthase, inducible (Mus musculus) (UniProt P29477)
Sequence (whole entry): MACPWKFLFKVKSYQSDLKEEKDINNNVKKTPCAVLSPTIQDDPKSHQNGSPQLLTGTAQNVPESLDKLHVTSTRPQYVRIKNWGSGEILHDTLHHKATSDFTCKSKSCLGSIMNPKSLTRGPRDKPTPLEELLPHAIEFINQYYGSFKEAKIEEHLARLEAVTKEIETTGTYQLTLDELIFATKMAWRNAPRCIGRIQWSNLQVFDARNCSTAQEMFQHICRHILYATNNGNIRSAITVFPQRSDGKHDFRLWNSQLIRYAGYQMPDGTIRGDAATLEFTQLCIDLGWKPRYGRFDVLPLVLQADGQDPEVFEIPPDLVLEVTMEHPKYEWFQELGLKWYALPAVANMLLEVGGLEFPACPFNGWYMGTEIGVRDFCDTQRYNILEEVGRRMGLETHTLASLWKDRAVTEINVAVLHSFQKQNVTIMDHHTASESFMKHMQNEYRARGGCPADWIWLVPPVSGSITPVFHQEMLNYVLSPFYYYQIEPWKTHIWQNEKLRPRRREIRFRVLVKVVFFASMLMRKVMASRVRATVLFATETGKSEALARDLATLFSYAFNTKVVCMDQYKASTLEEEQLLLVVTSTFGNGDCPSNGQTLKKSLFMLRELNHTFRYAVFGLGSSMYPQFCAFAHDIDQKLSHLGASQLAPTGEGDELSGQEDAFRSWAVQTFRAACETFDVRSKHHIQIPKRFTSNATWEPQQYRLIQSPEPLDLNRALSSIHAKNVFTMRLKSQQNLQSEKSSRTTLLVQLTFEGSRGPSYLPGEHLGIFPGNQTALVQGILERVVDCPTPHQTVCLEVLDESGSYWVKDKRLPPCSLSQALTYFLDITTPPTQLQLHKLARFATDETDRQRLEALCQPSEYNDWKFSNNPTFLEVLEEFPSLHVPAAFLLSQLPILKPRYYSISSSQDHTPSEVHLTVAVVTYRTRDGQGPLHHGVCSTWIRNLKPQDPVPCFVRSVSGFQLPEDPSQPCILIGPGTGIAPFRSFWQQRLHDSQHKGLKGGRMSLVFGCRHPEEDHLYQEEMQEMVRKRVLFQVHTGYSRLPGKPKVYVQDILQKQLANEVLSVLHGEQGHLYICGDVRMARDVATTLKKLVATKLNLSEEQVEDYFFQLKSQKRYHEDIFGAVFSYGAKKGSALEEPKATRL
Assay: Inhibition of iNOS-mediated nitric oxide production in LPS-stimulated mouse RAW 264.7 cells assessed as cell survival at 50 uM pretreated 15 mins before LPS challenge measured after 20 hrs relative to control
Type: cell-based
property_measured: Survival
Quick note: unit goes after the number.

Some solved cases for reference:
C=CCOC(=O)N1Cc2[nH]c3ccccc3c2C[C@@H]1C(=O)O :: 134%
O=C(O)[C@@H]1Cc2c([nH]c3ccccc23)CN1CC1CC1 :: 135%
COC(=O)[C@@H]1Cc2c([nH]c3ccccc23)CN1 :: 104%
CCCCCNC(=O)N1Cc2[nH]c3ccccc3c2C[C@@H]1C(=O)OC :: 90.5%
COC(=O)[C@@H]1Cc2c([nH]c3ccccc23)CN1Cc1ccccc1 :: 85.9%

Using the record for COC(=O)[C@@H]1Cc2c([nH]c3ccccc23)CN1C(=O)NC(C)C , state its measured Survival. 94.3%

Using the record for CCCCCNC(=O)N1Cc2[nH]c3ccccc3c2C[C@H]1C(=O)OC , state its measured Survival. 94.9%

Using the record for CS(=O)(=O)N1Cc2[nH]c3ccccc3c2C[C@@H]1C(=O)O , state its measured Survival. 93.1%

Using the record for C#CCN1Cc2[nH]c3ccccc3c2C[C@@H]1C(=O)OC , state its measured Survival. 114%

Using the record for O=C(O)[C@H]1Cc2c([nH]c3ccccc23)CN1Cc1ccc(O)cc1 , state its measured Survival. 94.7%

Using the record for C#CCN1Cc2[nH]c3ccccc3c2C[C@H]1C(=O)O , state its measured Survival. 126%
